For each of the sequences below, state its self-splicing fitness (ln).
# experiment summary: self-splicing fitness, log relative to wild type (ln ratio); higher = more splicing; Tetrahymena group I intron in knt gene, E. coli kanamycin selection, DiMSum; sequences stand for … in CUCUCU…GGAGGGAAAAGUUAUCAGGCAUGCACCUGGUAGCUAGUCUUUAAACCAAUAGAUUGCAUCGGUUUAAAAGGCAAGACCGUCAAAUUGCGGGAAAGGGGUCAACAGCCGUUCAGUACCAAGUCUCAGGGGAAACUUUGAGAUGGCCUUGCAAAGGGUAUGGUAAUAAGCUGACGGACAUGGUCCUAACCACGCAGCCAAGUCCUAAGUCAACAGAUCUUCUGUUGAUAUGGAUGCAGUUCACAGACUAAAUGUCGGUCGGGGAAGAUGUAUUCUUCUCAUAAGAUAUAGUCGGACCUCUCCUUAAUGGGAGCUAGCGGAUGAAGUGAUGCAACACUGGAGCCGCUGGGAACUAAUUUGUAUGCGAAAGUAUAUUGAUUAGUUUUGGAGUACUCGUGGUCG;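 further: selection with 25 µg/mL kanamycin versus none on LB agar overnight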
# test context: 30 °C
Answers are plain numbers.

Worked cases, answers included:
INSERT INTO measurements (residue_sequence, experimental_endpoint, numeric_value) VALUES
  ('CGCCAGCAAUAUUACGGCGU', 'self-splicing fitness (ln)', -3.63),
  ('GCGUAGCAAUAUUACGUGAG', 'self-splicing fitness (ln)', -2.75),
  ('UGUUAGCAAUAUUACGUACG', 'self-splicing fitness (ln)', -0.624),
  ('CUUGAGCAAUAUUACGCGGG', 'self-splicing fitness (ln)', -3.92),
  ('CUAUAGCAAUAUUACGCUAA', 'self-splicing fitness (ln)', -1.65);

Fill in self-splicing fitness (ln) for each of the 3 sequences listed.
1. AGGGAGCAAUAUUACGGUCG
2. CCAAAGCAAUAUUACGUGCU
3. GUGAAGCAAUAUUACGGGAA

1. -2.2
2. -4.12
3. -2.11

self-splicing fitness (ln) for "ACAUAGCAAUAUUACGGCAC" ? -1.56

These entries and their values trace back to the supplement of paper PMC7877785.
